Data origin: ChEMBL document CHEMBL4145616

Test: Selectivity index, ratio of IC50 for rat L6 cells to IC50 for Trypanosoma brucei rhodesiense STIB900 bloodstream forms
Assay type: toxicity
Conditions: read-out: Ratio IC50
Form field: selectivity ratio (one value per entry).

| given_smiles | selectivity ratio |
| --- | --- |
| CC(C)c1cc(CC[C@@H]2C(=O)CCCC2(C)C)c(O)cc1O | 1.7 |
| CC(C)[C@H]1C(=O)C2=C(C1=O)[C@@]1(C)CCCC(C)(C)[C@@H]1CC2=O | 2.6 |

###

Experiment: Selectivity index, ratio of IC50 for rat L6 cells to IC50 for trypomastigote form of Trypanosoma cruzi Tulahuen C2C4 infected in rat L6 cells
Type: toxicity, cell-based
Settings: read-out: Ratio IC50
Form field: selectivity ratio (one value per entry).

| given_smiles | selectivity ratio |
| --- | --- |
| CC(C)[C@H]1C(=O)C2=C(C1=O)[C@@]1(C)CCCC(C)(C)[C@@H]1CC2=O | 0.6 |
| CC(C)c1cc(CC[C@@H]2C(=O)CCCC2(C)C)c(O)cc1O | 1.2 |
